- assay system: T1, human CD28 (human, UniProt P10747 19-220, On cells CD28 is a disulfide linked homodimer and a glycoprotein; one copy of the chain is given.)
- T1 construct: also called T-cell specific surface glycoprotein CD28
- T1 sequence (P10747 19-220 limits assumed): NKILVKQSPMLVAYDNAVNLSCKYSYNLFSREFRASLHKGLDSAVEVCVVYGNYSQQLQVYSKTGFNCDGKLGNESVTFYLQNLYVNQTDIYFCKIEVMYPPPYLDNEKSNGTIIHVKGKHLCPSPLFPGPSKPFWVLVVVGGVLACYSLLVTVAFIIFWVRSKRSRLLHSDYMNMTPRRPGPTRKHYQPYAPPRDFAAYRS
- experiment description: flow cytometry, PE-conjugated antibody on fresh human peripheral blood cells, CD3/CD28 gating
measurement type: MFI CD28+ population
// return a plain number; no unit text

exemplary anti-CD28 antibody AB3 (antibody, V domains shown, Mouse hybridoma monoclonal antibody; Conjugated to PE in the staining assays; also called antibody 3; clone 3) VH: KVQLQQSGAGLVKPGASVKLSCKTSGYTFSDYIINWVKQRSGQGLEWIGWFYPGSGSINYNEKFKDKATLTADKSSSTVYMDLSRLTSEDSAVYFCARREDRGGYDAFDYWGQGTTLTVSS VL: DIQMTQSPASLSVSVGETVTITCRASENIYSNLAWYQQKQGKSPQLLVYAATKLADGVPSRFSGSGSGTQYSLRINSLQSEDFGSYYCQHFWGTPWTFGGGTKLEIK    15600

# ---- query binder ----
Returns the measured MFI CD28+ population for the input binder. Input: exemplary anti-CD28 antibody AB5 (antibody, V domains shown, Mouse hybridoma monoclonal antibody; Conjugated to PE in the staining assays; also called antibody 5; clone 5) VH: EVQLQQSGPELEKPGASVKMSCKASGYSFTDYNMNWVKQSNGKSLEWIGIIDPYYGATTYNQRFKGKATLTVDKSSSTAYMQLKSLTSEDSAVYYCARFGFYGAMDYWGQGISVTVSS VL: DVVVTQTPLSLPVSFGDQVSISCRSSQSLANSFGNTYLSWYLHKPGQSPQLLIYGISNRFSGVPDRFSGSGSGTDFTLKISTIKPEDLGVYYCLQGTHQPFTFGSGTTLELK
12500
